# ASSAYED TARGET: UniProtKB P35462
# EXPERIMENTAL PROTOCOL: Radioligand competition/saturation binding with [3H]spiperone, membranes of HEK293T cells monoexpressing D3R
# MEASUREMENT PARAMETERS: read-out: % Specific binding [³H]Spiperone, D3R; log concentration -12.00
MEASURED METRIC: remaining activity at 1 pM (%)
Please give a number only; it is taken to be in %.

>  <STRUCTURE>
CCCN(CCCCc1cn(-c2ccc(-c3ccc(C(=O)NCCOCCOCCOCCOCCOCCOCCC(=O)N[C@@H](CCCNC(=N)N)C(=O)N[C@@H](CCCNC(=N)N)C(=O)N4CCC[C@H]4C(=O)N[C@@H](Cc4ccc(O)cc4)C(=O)N[C@H](C(=O)N[C@@H](CC(C)C)C(=O)O)[C@@H](C)CC)cc3)cc2)nn1)C1Cc2ccccc2C1

>  <UNIT DESCRIPTOR>
%

>  <remaining activity at 1 pM>
88.8

$$$$
>  <STRUCTURE>
CC[C@H](C)[C@H](NC(=O)[C@H](Cc1ccc(O)cc1)NC(=O)[C@@H]1CCCN1C(=O)[C@H](CCCNC(=N)N)NC(=O)[C@H](CCCNC(=N)N)NC(=O)CCOCCOCCOCCOCCOCCOCCNC(=O)c1ccc(-c2ccc(-n3cc(CCCCN4CCN(c5ccccc5OC)CC4)nn3)cc2)cc1)C(=O)N[C@@H](CC(C)C)C(=O)O

>  <UNIT DESCRIPTOR>
%

>  <remaining activity at 1 pM>
102

$$$$
>  <STRUCTURE>
CCCN(CCCCc1cn(-c2ccc(-c3ccc(C(=O)NCCOCCOCCOCCOCCOCCOCCC(=O)NCCOCCOCCOCCOCCOCCOCCC(=O)NCCOCCOCCOCCOCCOCCOCCC(=O)NCCOCCOCCOCCOCCOCCOCCC(=O)N[C@@H](CCCNC(=N)N)C(=O)N[C@@H](CCCNC(=N)N)C(=O)N4CCC[C@H]4C(=O)N[C@@H](Cc4ccc(O)cc4)C(=O)N[C@H](C(=O)N[C@@H](CC(C)C)C(=O)O)[C@@H](C)CC)cc3)cc2)nn1)C1Cc2ccccc2C1

>  <UNIT DESCRIPTOR>
%

>  <remaining activity at 1 pM>
103

$$$$

Note: attention shifts to another entry.
Ask: Which measured remaining activity at 1 pM value corresponds to `CC[C@H](C)[C@H](NC(=O)[C@H](Cc1ccc(O)cc1)NC(=O)[C@@H]1CCCN1C(=O)[C@H](CCCNC(=N)N)NC(=O)[C@H](CCCNC(=N)N)NC(=O)CCOCCOCCOCCOCCOCCOCCNC(=O)CCOCCOCCOCCOCCOCCOCCNC(=O)CCOCCOCCOCCOCCOCCOCCNC(=O)CCOCCOCCOCCOCCOCCOCCNC(=O)c1ccc(-c2ccc(-n3cc(CCCCN4CCN(c5ccccc5OC)CC4)nn3)cc2)cc1)C(=O)N[C@@H](CC(C)C)C(=O)O` ?
Result: 94.4

* * *

# ASSAYED TARGET: D3R (Homo sapiens)
# Sequence (P35462 whole entry): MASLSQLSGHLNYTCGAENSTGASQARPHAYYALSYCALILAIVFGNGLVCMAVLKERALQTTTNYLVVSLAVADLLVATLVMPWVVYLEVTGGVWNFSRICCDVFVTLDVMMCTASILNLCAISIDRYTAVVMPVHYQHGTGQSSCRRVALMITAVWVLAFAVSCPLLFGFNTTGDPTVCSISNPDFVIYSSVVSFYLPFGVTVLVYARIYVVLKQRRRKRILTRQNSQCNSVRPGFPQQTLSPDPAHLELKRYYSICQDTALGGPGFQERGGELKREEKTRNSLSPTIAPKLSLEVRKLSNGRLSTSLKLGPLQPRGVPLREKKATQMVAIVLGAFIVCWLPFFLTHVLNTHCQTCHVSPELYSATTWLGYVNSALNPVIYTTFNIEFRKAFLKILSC
# EXPERIMENTAL PROTOCOL: IPOne accumulation, D3R-mediated G protein activation, HEK293T cells with D3R and Gqprom
# Format: cell-based
# Design: host or cells: HEK293T, transient
# MEASUREMENT PARAMETERS: compared to the reference agonist quinpirole

>  <COMPOUND>
CCCN(CCCCc1cn(-c2ccc(-c3ccc(C(=O)NCCOCCOCCOCCOCCOCCOCCC(=O)NCCOCCOCCOCCOCCOCCOCCC(=O)NCCOCCOCCOCCOCCOCCOCCC(=O)NCCOCCOCCOCCOCCOCCOCCC(=O)N[C@@H](CCCNC(=N)N)C(=O)N[C@@H](CCCNC(=N)N)C(=O)N4CCC[C@H]4C(=O)N[C@@H](Cc4ccc(O)cc4)C(=O)N[C@H](C(=O)N[C@@H](CC(C)C)C(=O)O)[C@@H](C)CC)cc3)cc2)nn1)C1Cc2ccccc2C1 [1d]

>  <D3R-mediated activation of G proteins>
full D3R agonists

$$$$
>  <COMPOUND>
CCCN(CCCCc1cn(-c2ccc(-c3ccc(C(=O)NCCOCCOCCOCCOCCOCCOCCC(=O)N[C@@H](CCCNC(=N)N)C(=O)N[C@@H](CCCNC(=N)N)C(=O)N4CCC[C@H]4C(=O)N[C@@H](Cc4ccc(O)cc4)C(=O)N[C@H](C(=O)N[C@@H](CC(C)C)C(=O)O)[C@@H](C)CC)cc3)cc2)nn1)C1Cc2ccccc2C1 [1a]

>  <D3R-mediated activation of G proteins>
full D3R agonists

$$$$

Each recorded value in this set is attributed to paper PMC8433439.
